# testSummary: in vitro
# testParameters: dog
experimentalEndpoint: CC50

Measured CC50 of `C=C(C)[C@@H]1CC[C@]2(C(=O)O)CC[C@]3(CO)[C@H](CC[C@@H]4[C@@]5(C)C[C@@H](O)[C@H](O[C@@H]6O[C@H](CO)[C@@H](O)[C@H](O)[C@H]6O[C@@H]6O[C@H](CO)[C@@H](O)[C@H](O)[C@H]6O)C(C)(C)[C@@H]5CC[C@]43C)[C@@H]12` : > 100 µM

Form: molecule = `C=C(C)[C@@H]1CC[C@]2(C(=O)O)CC[C@]3(CO)[C@H](CC[C@@H]4[C@@]5(C)C[C@@H](O)[C@H](O[C@@H]6O[C@H](CO)[C@@H](O)[C@H](O)[C@H]6O[C@@H]6OC[C@@H](O)[C@H](O)[C@H]6O)C(C)(C)[C@@H]5CC[C@]43C)[C@@H]12` ; CC50 = > 100 µM

# CC50 of `C=C(C)[C@@H]1CC[C@]2(C(=O)O)CC[C@]3(C)[C@H](CC[C@@H]4[C@@]5(C)C[C@@H](O)[C@H](O[C@@H]6O[C@H](CO)[C@@H](O)[C@H](O)[C@H]6O[C@@H]6OC[C@@H](O)[C@H](O)[C@H]6O)C(C)(C)[C@@H]5CC[C@]43C)[C@@H]12` = > 100 µM

get_value(item= C=C(C)[C@@H]1CC[C@]2(C(=O)O)CC[C@]3(CO)[C@H](CC[C@@H]4[C@@]5(C)C[C@@H](O)[C@H](O)C(C)(C)[C@@H]5CC[C@]43C)[C@@H]12 [27-hydroxyalphitolic acid] , readout=CC50) returns > 100 µM

* * *

# Test system: H3N2 influenza virus A/Hong Kong/68 (HK/68)
# testSummary: CPE inhibition assay with HK/68 in MDCK cells
# Type: cell-based
# testParameters: Influenza A virus, H3N2; HK/68 and Jena/8178 together, CPE inhibition in MDCK cells; read-out: IC50 values, anti-influenza virus activity stated for both strains together
pIC50: −log10 of the molar value.
experimentalEndpoint: pIC50

Per the records, this molecule ( `C[C@H]1O[C@H](O[C@H]2[C@H](O[C@H]3[C@H](O[C@H]4CC[C@]5(C)[C@H]6CC=C7[C@@H]8CC(C)(C)[C@H](OC(=O)/C=C/c9ccccc9)C[C@]8(C(=O)O)CC[C@@]7(C)[C@]6(C)CC[C@H]5C4(C)C)OC[C@@H](O)[C@@H]3O)OC[C@@H](O)[C@@H]2O)[C@@H](O)[C@@H](O)[C@@H]1O` ) has pIC50 equal to 6.57 to 7.30

Value of pIC50 reported for the molecule `CC1(C)C[C@H]2C3=CC[C@@H]4[C@@]5(C)C[C@@H](O)[C@H](O)C(C)(C)[C@@H]5CC[C@@]4(C)[C@]3(C)CC[C@@]2(C(=O)O)C[C@H]1OC(=O)/C=C/c1ccccc1` is 4.96 to 5.15

Briefly, pIC50 measured for `C[C@H]1O[C@H](O[C@@H]2CO[C@@H](O[C@H]3CC[C@]4(C)[C@H]5CC=C6[C@@H]7CC(C)(C)[C@H](OC(=O)/C=C/c8ccccc8)C[C@]7(C(=O)O)CC[C@@]6(C)[C@]5(C)CC[C@H]4C3(C)C)[C@H](O[C@@H]3OC[C@@H](O)[C@H](O)[C@H]3O[C@H]3O[C@H](C)[C@@H](O)[C@H](O)[C@@H]3O)[C@H]2O)[C@@H](O)[C@@H](O)[C@@H]1O` : 6.57 to 7.30
